assay system: UniProt:P42680
Sequence (P42680 whole entry, looked up): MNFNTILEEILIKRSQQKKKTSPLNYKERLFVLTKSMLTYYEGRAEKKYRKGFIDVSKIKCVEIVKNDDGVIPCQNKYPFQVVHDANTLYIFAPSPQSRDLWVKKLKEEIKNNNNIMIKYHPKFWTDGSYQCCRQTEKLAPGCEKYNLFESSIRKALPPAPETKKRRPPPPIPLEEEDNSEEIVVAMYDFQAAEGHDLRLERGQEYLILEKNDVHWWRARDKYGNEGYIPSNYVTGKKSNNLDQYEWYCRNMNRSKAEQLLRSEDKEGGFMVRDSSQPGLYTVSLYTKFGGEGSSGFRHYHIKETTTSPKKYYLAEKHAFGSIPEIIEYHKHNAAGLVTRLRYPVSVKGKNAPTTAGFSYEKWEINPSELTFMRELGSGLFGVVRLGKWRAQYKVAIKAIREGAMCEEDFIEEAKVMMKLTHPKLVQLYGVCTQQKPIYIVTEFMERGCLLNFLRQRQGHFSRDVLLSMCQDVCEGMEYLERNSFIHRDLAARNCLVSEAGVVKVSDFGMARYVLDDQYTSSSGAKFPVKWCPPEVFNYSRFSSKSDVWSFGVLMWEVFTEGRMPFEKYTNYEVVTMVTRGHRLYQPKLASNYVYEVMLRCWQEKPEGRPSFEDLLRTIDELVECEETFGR
assay procedure: radiometric filter-binding kinase assay, Kinase HotSpot
condition description: compound 0.5 µM; ATP 10 µM
# maps each entry to its residual activity
Return type: number; implicit unit %.

{"compound": "CC(C)[C@H](CO)Nc1nc(Nc2cc(N)cc(Cl)c2)c2ncn(C(C)C)c2n1", "assay system": "UniProt:P42680", "residual activity / %": 130}

Could you tell me which residual activity is on file for Cn1nc2c3c(cccc31)C(=O)c1ccccc1-2 ? 102

Entry O=C1Nc2ccccc2/C1=C1/Nc2ccccc2/C1=N\OCCC(O)CO (configuration not stated) : reported residual activity = ? 101

Return reported residual activity; argument: COc1ccc(OC)c2c(=S)c3ccccc3[nH]c12 147

Suppose we examine the compound Nc1nnc2[nH]c3ccccc3nc1-2 ; what residual activity value has been reported? 108

# query: residual activity of entry O=C(O)/C=C/c1cc(Br)c(Br)c(Br)c1Br 107

Look at this compound and give its reported residual activity. CCn1cnc2c(Nc3cccc(Cl)c3)nc(N[C@@H]3CCCC[C@@H]3N)nc21 123

GET /values?readout=residual activity&item= CN([C@@H](Cc1ccc(OS(=O)(=O)c2cccc3cnccc23)cc1)C(=O)N1CCN(c2ccccc2)CC1)S(=O)(=O)c1cccc2cnccc12 98.9

###

assay system: PHKG1 (human) (UniProt Q16816)
Sequence (Q16816 whole entry, looked up): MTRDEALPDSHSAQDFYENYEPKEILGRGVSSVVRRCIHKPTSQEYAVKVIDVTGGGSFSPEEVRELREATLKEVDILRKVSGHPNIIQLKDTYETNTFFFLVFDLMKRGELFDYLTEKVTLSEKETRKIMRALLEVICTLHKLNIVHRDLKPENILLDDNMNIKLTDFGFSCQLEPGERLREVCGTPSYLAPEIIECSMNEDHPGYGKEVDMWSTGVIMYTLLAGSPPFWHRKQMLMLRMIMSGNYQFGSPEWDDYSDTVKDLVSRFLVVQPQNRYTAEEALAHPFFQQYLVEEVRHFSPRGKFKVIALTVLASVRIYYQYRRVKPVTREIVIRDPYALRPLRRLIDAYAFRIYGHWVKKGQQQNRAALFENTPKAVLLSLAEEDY
assay procedure: radiometric filter-binding kinase assay, Kinase HotSpot
condition description: compound 0.5 µM; ATP 10 µM
Quick list: residual activity per entry.
State the value with its unit after it.

Solved cases below.
{"structure smiles string": "Cn1sc(=O)n(Cc2ccccc2)c1=O", "residual activity": "102%"}
{"structure smiles string": "CN(C)C[C@H]1CCn2c(c(C3=C(c4cn(C)c5ccccc45)C(=O)NC3=O)c3ccccc32)C1", "residual activity": "78.4%"}
{"structure smiles string": "O=C(Nc1cccc(Nc2cc(Nc3cccc(C(F)(F)F)c3)ncn2)c1)C1CC1", "residual activity": "100%"}

Give the measured residual activity of CC(C)[C@H](CO)Nc1nc(Nc2cc(N)cc(Cl)c2)c2ncn(C(C)C)c2n1 . 81.1%

Consider the compound shown here: CN([C@@H](Cc1ccc(OS(=O)(=O)c2cccc3cnccc23)cc1)C(=O)N1CCN(c2ccccc2)CC1)S(=O)(=O)c1cccc2cnccc12 What is its recorded residual activity? 93.4%

###

assay system: UniProt:Q12866
Sequence (Q12866 whole entry, looked up): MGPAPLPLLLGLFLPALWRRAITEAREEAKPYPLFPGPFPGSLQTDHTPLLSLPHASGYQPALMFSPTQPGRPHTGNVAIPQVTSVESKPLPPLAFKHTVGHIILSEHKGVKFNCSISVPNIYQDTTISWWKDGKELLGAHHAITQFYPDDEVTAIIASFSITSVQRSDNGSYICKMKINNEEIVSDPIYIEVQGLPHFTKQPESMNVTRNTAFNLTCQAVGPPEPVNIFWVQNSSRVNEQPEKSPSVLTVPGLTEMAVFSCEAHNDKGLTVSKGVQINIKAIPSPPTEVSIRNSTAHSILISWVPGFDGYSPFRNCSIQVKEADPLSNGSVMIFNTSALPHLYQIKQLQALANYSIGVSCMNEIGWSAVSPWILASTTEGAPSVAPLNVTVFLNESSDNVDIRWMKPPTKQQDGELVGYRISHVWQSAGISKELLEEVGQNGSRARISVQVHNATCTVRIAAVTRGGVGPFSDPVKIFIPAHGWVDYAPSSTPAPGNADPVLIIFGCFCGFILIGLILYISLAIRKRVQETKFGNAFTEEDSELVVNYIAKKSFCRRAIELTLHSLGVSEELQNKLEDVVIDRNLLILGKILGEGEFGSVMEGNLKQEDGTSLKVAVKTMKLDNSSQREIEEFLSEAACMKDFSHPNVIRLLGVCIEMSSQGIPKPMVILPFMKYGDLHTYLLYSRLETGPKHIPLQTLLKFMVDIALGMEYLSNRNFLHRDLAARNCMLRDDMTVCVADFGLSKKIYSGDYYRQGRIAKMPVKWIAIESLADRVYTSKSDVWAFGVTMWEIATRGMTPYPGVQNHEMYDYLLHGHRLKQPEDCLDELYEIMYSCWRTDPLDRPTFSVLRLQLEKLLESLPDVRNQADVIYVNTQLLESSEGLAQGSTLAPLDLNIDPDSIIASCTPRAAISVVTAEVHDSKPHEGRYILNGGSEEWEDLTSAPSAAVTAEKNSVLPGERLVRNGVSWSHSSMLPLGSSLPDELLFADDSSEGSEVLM
assay procedure: radiometric filter-binding kinase assay, Kinase HotSpot
condition description: compound 0.5 µM; ATP 10 µM
Here, each record is paired with measured residual activity data.
Use % as the unit, but write only the number.

Illustrative cases are given below, each with its answer.
{"structure smiles string": "CCn1cnc2c(Nc3cccc(Cl)c3)nc(N[C@@H]3CCCC[C@@H]3N)nc21", "residual activity, %": 76.2}
{"structure smiles string": "Nc1nnc2[nH]c3ccccc3nc1-2", "residual activity, %": 92.9}
{"structure smiles string": "CN(C)C[C@H]1CCn2c(c(C3=C(c4cn(C)c5ccccc45)C(=O)NC3=O)c3ccccc32)C1", "residual activity, %": 95.4}
{"structure smiles string": "CC(C)[C@H](CO)Nc1nc(Nc2cc(N)cc(Cl)c2)c2ncn(C(C)C)c2n1", "residual activity, %": 79.7}

Now let's try a different one.
Any idea what residual activity was measured for COc1cc2ncnc(N3CCN(C(=O)Nc4ccc(Oc5ccccc5)cc4)CC3)c2cc1OC ? 60

###

assay system: UniProtKB P53350
Sequence (P53350 whole entry, looked up): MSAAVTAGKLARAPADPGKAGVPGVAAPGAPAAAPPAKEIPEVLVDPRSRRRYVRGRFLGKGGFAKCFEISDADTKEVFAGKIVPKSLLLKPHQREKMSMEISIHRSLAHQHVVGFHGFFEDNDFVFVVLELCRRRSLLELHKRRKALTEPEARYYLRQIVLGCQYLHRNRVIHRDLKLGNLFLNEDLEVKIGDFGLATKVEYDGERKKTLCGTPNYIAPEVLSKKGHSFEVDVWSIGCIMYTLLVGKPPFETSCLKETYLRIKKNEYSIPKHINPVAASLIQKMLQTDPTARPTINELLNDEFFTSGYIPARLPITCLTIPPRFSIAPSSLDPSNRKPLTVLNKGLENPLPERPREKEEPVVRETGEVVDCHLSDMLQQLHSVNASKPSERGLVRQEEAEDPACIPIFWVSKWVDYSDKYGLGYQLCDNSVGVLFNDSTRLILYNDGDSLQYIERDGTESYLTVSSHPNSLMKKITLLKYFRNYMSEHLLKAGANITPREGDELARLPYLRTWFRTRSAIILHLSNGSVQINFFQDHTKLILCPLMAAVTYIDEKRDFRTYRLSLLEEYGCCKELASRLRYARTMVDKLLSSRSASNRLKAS
assay procedure: radiometric filter-binding kinase assay, Kinase HotSpot
condition description: compound 0.5 µM; ATP 10 µM
measured metric: residual activity (%)
# number only, unit % dropped from output

Look at this compound and give its reported residual activity. CCn1cnc2c(Nc3cccc(Cl)c3)nc(N[C@@H]3CCCC[C@@H]3N)nc21 86

Look up residual activity: Nc1nnc2[nH]c3ccccc3nc1-2 94.5

Consider the compound shown here: CC(=O)O/N=C1\C(=C2\C(=O)Nc3cc(Br)ccc32)Nc2ccccc21 What is its recorded residual activity? 105

Value lookup for residual activity; key = Cn1sc(=O)n(Cc2ccccc2)c1=O 97.2

Report residual activity for COc1ccc(CNC(=O)Nc2ncc([N+](=O)[O-])s2)cc1 please. 102

May I ask what residual activity has been recorded for O=C1NC(=O)C(c2cn(CCCO)c3ncccc23)=C1c1cnccn1 ? 103

###

assay system: FYN (human) (UniProt P06241)
Sequence (P06241 whole entry, looked up): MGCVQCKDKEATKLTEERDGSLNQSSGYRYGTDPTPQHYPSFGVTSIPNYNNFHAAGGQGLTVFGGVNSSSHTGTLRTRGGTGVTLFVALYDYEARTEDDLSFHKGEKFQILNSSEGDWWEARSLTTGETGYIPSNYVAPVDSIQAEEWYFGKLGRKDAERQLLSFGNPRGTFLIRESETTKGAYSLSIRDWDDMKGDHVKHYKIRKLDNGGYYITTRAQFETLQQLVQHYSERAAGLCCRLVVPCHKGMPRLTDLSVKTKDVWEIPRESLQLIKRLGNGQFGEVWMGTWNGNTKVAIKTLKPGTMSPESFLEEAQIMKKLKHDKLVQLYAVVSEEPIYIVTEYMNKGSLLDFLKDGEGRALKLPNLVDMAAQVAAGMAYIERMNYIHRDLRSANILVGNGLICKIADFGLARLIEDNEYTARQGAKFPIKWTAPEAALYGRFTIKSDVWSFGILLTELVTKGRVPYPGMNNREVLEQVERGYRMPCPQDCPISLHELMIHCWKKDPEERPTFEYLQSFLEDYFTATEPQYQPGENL
assay procedure: radiometric filter-binding kinase assay, Kinase HotSpot
condition description: compound 0.5 µM; ATP 10 µM
Listed compounds paired with reported residual activity
Give the number; % is assumed, so skip it.

{"compound": "COc1cc(OC)c(/C=C2\\C(=O)Nc3ccccc32)c(OC)c1", "residual activity (%)": 100}
{"compound": "O=C1Nc2ccccc2/C1=C1/Nc2ccccc2/C1=N\\OCCC(O)CO (stereo not drawn)", "residual activity (%)": 13}

I would be grateful if you could share the reported residual activity for O=C1Nc2ccccc2/C1=C1\Nc2ccccc2\C1=N/O . 43.3

Entry O=C(Nc1cccc(Nc2cc(Nc3cccc(C(F)(F)F)c3)ncn2)c1)C1CC1 : reported residual activity = ? 100

Query (compound): O=C(CCCc1ccc(-c2ccccc2F)cc1)Nc1ccc(O)cc1 ; field requested: residual activity 94.7

Consider the compound Cn1cnc2cc3c(Nc4cccc(Br)c4)ncnc3cc21 and give its measured residual activity. 85.9

Could you share which residual activity value was measured for Oc1ccc(Nc2nc(-c3ccc(Cl)cc3)cs2)cc1 ? 102

###

assay system: CLK4 (human)
assay procedure: radiometric filter-binding kinase assay, Kinase HotSpot
condition description: compound 0.5 µM; ATP 10 µM
measured metric: residual activity (%)
Please state the figure in %; there is no need to write the unit.

Some molecules with recorded residual activity:
{"molecule": "O=C(O)/C=C/c1cc(Br)c(Br)c(Br)c1Br", "measurement units": "%", "residual activity": 45.4}
{"molecule": "CCn1cnc2c(Nc3cccc(Cl)c3)nc(N[C@@H]3CCCC[C@@H]3N)nc21", "measurement units": "%", "residual activity": 49.9}
{"molecule": "COc1cc2ncc(-c3ccccc3)nc2cc1OC", "measurement units": "%", "residual activity": 102}
{"molecule": "COc1ccc(OC)c2c(=S)c3ccccc3[nH]c12", "measurement units": "%", "residual activity": 104}
{"molecule": "O=C1NC(=O)C(c2c[nH]c3ccccc23)=C1c1c[nH]c2ccccc12", "measurement units": "%", "residual activity": 76.1}

Value wanted: residual activity (CLK4 (human)) of entry O=C(Nc1cccc(Nc2cc(Nc3cccc(C(F)(F)F)c3)ncn2)c1)C1CC1 97.3

Short answer please: residual activity, CLK4 (human), entry Cn1nc2c3c(cccc31)C(=O)c1ccccc1-2 69.8

Please tell me: residual activity of O=C1Nc2ccccc2/C1=C1/Nc2ccccc2/C1=N\OCCC(O)CO (stereo not drawn) , system CLK4 (human)? 6.19

Kindly state the measured residual activity obtained for Oc1ccc(Nc2nc(-c3ccc(Cl)cc3)cs2)cc1 with CLK4 (human). 98.8

###

assay system: FGR (human) (UniProt P09769)
Sequence (P09769 whole entry, looked up): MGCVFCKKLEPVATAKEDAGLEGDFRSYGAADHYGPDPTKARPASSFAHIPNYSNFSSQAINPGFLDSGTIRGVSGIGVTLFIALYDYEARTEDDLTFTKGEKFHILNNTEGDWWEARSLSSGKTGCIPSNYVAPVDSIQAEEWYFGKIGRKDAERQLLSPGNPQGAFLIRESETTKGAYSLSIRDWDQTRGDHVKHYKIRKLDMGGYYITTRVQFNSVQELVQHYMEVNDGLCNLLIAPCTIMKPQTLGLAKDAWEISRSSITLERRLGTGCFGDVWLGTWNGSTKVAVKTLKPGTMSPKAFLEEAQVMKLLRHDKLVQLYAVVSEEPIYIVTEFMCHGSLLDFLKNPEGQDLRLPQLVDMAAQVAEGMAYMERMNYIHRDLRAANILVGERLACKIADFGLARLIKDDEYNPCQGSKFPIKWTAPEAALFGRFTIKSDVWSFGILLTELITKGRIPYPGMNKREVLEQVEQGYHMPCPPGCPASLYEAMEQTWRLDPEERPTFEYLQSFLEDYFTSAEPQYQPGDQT
assay procedure: radiometric filter-binding kinase assay, Kinase HotSpot
condition description: compound 0.5 µM; ATP 10 µM
measured metric: residual activity (%)
Only the number, expressed in %, is required.

{"molecule": "Nc1nccc(-c2c(-c3ccc(F)cc3)ncn2C2CCNCC2)n1", "residual activity (%)": 95.9}
{"molecule": "CN(C)C[C@H]1CCn2c(c(C3=C(c4cn(C)c5ccccc45)C(=O)NC3=O)c3ccccc32)C1", "residual activity (%)": 97.2}
{"molecule": "Oc1ccc(Nc2nc(-c3ccc(Cl)cc3)cs2)cc1", "residual activity (%)": 96.4}
{"molecule": "COc1ccc(CNC(=O)Nc2ncc([N+](=O)[O-])s2)cc1", "residual activity (%)": 92.4}
{"molecule": "CC(C)[C@H](CO)Nc1nc(Nc2cc(N)cc(Cl)c2)c2ncn(C(C)C)c2n1", "residual activity (%)": 15}
{"molecule": "O=C(CCCc1ccc(-c2ccccc2F)cc1)Nc1ccc(O)cc1", "residual activity (%)": 96}

Item under review: CN([C@@H](Cc1ccc(OS(=O)(=O)c2cccc3cnccc23)cc1)C(=O)N1CCN(c2ccccc2)CC1)S(=O)(=O)c1cccc2cnccc12 . Reported residual activity? 99.5

Which residual activity reading was recorded for the molecule O=C1NC(=O)C(c2c[nH]c3ccccc23)=C1c1c[nH]c2ccccc12 ? 88.5

May I ask what residual activity has been recorded for Cn1nc2c3c(cccc31)C(=O)c1ccccc1-2 ? 93.4

So what's the measured residual activity for this one? O=C1Cc2c([nH]c3ccc(Br)cc23)-c2ccccc2N1 74.4

Looking for the measured residual activity of COc1cc2ncnc(N3CCN(C(=O)Nc4ccc(Oc5ccccc5)cc4)CC3)c2cc1OC , can you help? 98.8

State the recorded residual activity for this entry: O=C1NC(=O)/C(=C\c2ccc3nccnc3c2)S1 96.8

Which residual activity is listed for CCn1cnc2c(Nc3cccc(Cl)c3)nc(N[C@@H]3CCCC[C@@H]3N)nc21 ? 45.8

What measured residual activity goes with COc1cc2ncc(-c3ccccc3)nc2cc1OC ? 85.4

Form field: reported residual activity of O=C(O)/C=C/c1cc(Br)c(Br)c(Br)c1Br 98.4

Look up residual activity for this molecule: O=C(Nc1cccc(Nc2cc(Nc3cccc(C(F)(F)F)c3)ncn2)c1)C1CC1 96.4

I am curious: what residual activity value has been reported for CC(=O)O/N=C1\C(=C2\C(=O)Nc3cc(Br)ccc32)Nc2ccccc21 ? 14.8
